Parameter cytotoxicity (LDH-Cytotoxic Test), mean: see the listing below.
- Test system: ARPE-19 cells
- assayExplanation: Cytotoxicity, LDH-Cytotoxic Test in ARPE-19 cells
- Type: cell-based, human
- condition: 10 μM, approx. 16 hours, 3 wells
Form entry: value (%) — number only.

cytotoxicity (LDH-Cytotoxic Test), mean in this record for COC(=O)[C@]12CC[C@@](C)(CO)C[C@H]1[C@H]1C(=O)C=C3[C@@]4(C)[C@H]5O[C@@]5(C#N)C(=O)C(C)(C)[C@@H]4CC[C@@]3(C)[C@]1(C)CC2 : 1

cytotoxicity (LDH-Cytotoxic Test), mean in this record for COC(=O)[C@@]12CC[C@]3(C)[C@H](C(=O)C=C4[C@@]5(C)[C@H]6O[C@@]6(C#N)C(=O)C(C)(C)[C@@H]5CC[C@]43C)[C@@H]1CC(C)(C)[C@@H](O)C2 : 2

cytotoxicity (LDH-Cytotoxic Test), mean in this record for COC(=O)[C@]12CCC(C)(C)C[C@H]1[C@H]1C(=O)C=C3[C@@]4(C)C=C(C#N)C(=O)C(C)(C)[C@@H]4CC[C@@]3(C)[C@]1(C)CC2 [CDDO-Me, reference compound] : 43

cytotoxicity (LDH-Cytotoxic Test), mean in this record for CC1(C)CC(O)[C@]2(C(N)=O)CC[C@]3(C)[C@H](C(=O)C=C4[C@@]5(C)C6OC6(C#N)C(=O)C(C)(C)[C@@H]5CC[C@]43C)[C@@H]2C1 (stereo partly drawn) : 2

cytotoxicity (LDH-Cytotoxic Test), mean in this record for COC(=O)[C@]12CCC(C)(C)C[C@H]1[C@H]1C(=O)C=C3[C@@]4(C)C5OC5(C#N)C(=O)C(C)(C)[C@@H]4CC(O)[C@@]3(C)[C@]1(C)CC2 (stereo partly drawn) : 1

cytotoxicity (LDH-Cytotoxic Test), mean in this record for COC(=O)[C@@]12CC[C@]3(C)[C@H](C(=O)C=C4[C@@]5(C)[C@H]6O[C@@]6(C#N)C(=O)C(C)(C)[C@@H]5CC[C@]43C)[C@@H]1CC(C)(C)C(=O)C2 : 2

cytotoxicity (LDH-Cytotoxic Test), mean in this record for COC(=O)[C@]12CC[C@](C)(CO)C[C@H]1[C@H]1C(=O)C=C3[C@@]4(C)[C@H]5O[C@@]5(C#N)C(=O)C(C)(C)[C@@H]4CC[C@@]3(C)[C@]1(C)CC2 : 2

cytotoxicity (LDH-Cytotoxic Test), mean in this record for CC1(C)C[C@H]2[C@H]3C(=O)C=C4[C@@]5(C)C=C(C#N)C(=O)C(C)(C)[C@@H]5CC[C@@]4(C)[C@]3(C)CC[C@@]2(C#N)CC1O (stereo partly drawn) : 3

cytotoxicity (LDH-Cytotoxic Test), mean in this record for CC1(C)C[C@H]2[C@H]3C(=O)C=C4[C@@]5(C)C6OC6(C#N)C(=O)C(C)(C)[C@@H]5CC[C@@]4(C)[C@]3(C)CC[C@@]2(C#N)CC1O (stereo partly drawn) : 3
